Property: TGI; scope: individual molecules
Tested on: RPMI-8226 leukemia
method: NCI tumour cell line growth inhibition, 48 h

[
  {
    "molecule": "Clc1ccc(-n2nnc(C3=NCCCN3)c2-c2ccccc2)cc1",
    "reported measurement": "> 100 µM"
  }
]

Task: So what's the measured TGI for this one? Nc1ccc(C(=O)c2ccc(N)c(Br)c2)cc1Br
Output: 3.73 µM

Task: So what's the measured TGI for this one? COC(=O)C1=COC(C)C2C[n+]3ccc4c([nH]c5ccccc54)c3CC12 (stereo not given)
Output: > 100 µM

Task: So what's the measured TGI for this one? O=C(CCCC1Cc2ccccc2C1=O)c1ccccc1 (stereo not given)
Output: > 100 µM

Task: So what's the measured TGI for this one? Cn1nc(-c2ccccc2)c(N=[N+]=[N-])cc1=O
Output: > 100 µM

----------
System: KM12 colon
method: NCI tumour cell line growth inhibition, 48 h
Property: TGI; scope: individual compounds

Worked set:
[
  {
    "compound": "C\\C=C/C=C/C=C/C(=O)O",
    "TGI": "> 100 µM"
  },
  {
    "compound": "Nc1ccccc1/C=C\\c1ccccc1",
    "TGI": "> 100 µM"
  },
  {
    "compound": "O=c1c2ncn(C3CCCCO3)c2n(-c2ccccc2)c(=S)n1-c1ccccc1 (stereo unspecified)",
    "TGI": "> 100 µM"
  },
  {
    "compound": "NC(CCl)=NC1CN2CCC1CC2 (stereo unspecified)",
    "TGI": "> 100 µM"
  },
  {
    "compound": "N#CN=C1c2ccccc2C(=NC#N)c2cc(CO)ccc21",
    "TGI": "> 100 µM"
  }
]

Now let's try a different one.
Task: So what's the measured TGI for this one? [N-]=[N+]=C(C(=O)OCC#CCOC(=O)C(=[N+]=[N-])S(=O)(=O)c1ccccc1)S(=O)(=O)c1ccccc1
Output: > 10 µM

----------
System: SNB-19 CNS
method: NCI tumour cell line growth inhibition, 48 h
Property: TGI; scope: individual compounds

Worked set:
[
  {
    "compound": "CCC(C)NC(=S)N/N=C(\\C)c1ccccn1 (configuration not stated)",
    "reported measurement": "> 100 µM"
  },
  {
    "compound": "CC(C)(C)C(=O)Nc1ccccc1I(=O)=O",
    "reported measurement": "> 100 µM"
  },
  {
    "compound": "Cn1nc(-c2ccccc2)c(N=[N+]=[N-])cc1=O",
    "reported measurement": "> 100 µM"
  },
  {
    "compound": "Cc1cc(C)c(O)c(CNCCCCCCNCc2cc(C)cc(C)c2O)c1",
    "reported measurement": "4.59 µM"
  },
  {
    "compound": "c1ccc2c(c1)nc1n2CCNC1",
    "reported measurement": "> 100 µM"
  },
  {
    "compound": "CC(=O)Nc1ccc(N2C(=O)CS(=O)(=O)C2c2cccc(Oc3ccccc3)c2)cc1 (configuration not stated)",
    "reported measurement": "36.2 µM"
  },
  {
    "compound": "O=C1OC(C2Cc3ccccc3C2=O)c2ccccc21 (configuration not stated)",
    "reported measurement": "> 100 µM"
  },
  {
    "compound": "CCN(CC)c1ccc2c(c1)Oc1ccc(N(C(C)=O)c3ccccc3)cc1C21OC(=O)c2ccccc21 (configuration not stated)",
    "reported measurement": "> 100 µM"
  },
  {
    "compound": "COC(=O)/C=C(C)/C=C/c1cc(C(C)=O)c(C)o1",
    "reported measurement": "> 100 µM"
  },
  {
    "compound": "COc1ccc(OC)c(C(=O)/C=C/c2cc(O)c(O)cc2F)c1",
    "reported measurement": "> 35 µM"
  }
]

Task: So what's the measured TGI for this one? N#CCc1ccc(C(C#N)/C(CCCC(=O)Nc2cccc([N+](=O)[O-])c2)=N\NC(=O)NN)cc1 (configuration not stated)
Output: > 100 µM

Task: So what's the measured TGI for this one? CC([C@H]1CCC2C3CCC4C[C@@H](NC=O)CC[C@]4(C)C3CC[C@@]21C)N(C)C (some centres not stated)
Output: 19.5 µM

Task: So what's the measured TGI for this one? Fc1ccc(Oc2nccc(-c3c(-c4ccc(F)cc4)ncn3C3CCNCC3)n2)cc1
Output: > 25 µM

Task: So what's the measured TGI for this one? OCC(O)C(O)C(O)C1SC(c2ccccc2)=NN1c1ccccc1 (configuration not stated)
Output: > 89.8 µM
